Items are presented alongside their recorded pI50.
- Measurement notes: Inhibition of photosynthetic electron transport protein complex in Spinacia oleracea (spinach) leaf thylakoid

Smiles str: CCNc1nc(Cl)nc(NC(C)C)n1
pI50: 6.73
--
Smiles str: Cc1nc(NCc2ccccc2)nc(C(F)(F)F)n1
pI50: 6.85
--
Smiles str: Cc1nc(CF)nc(NCc2ccccc2)n1
pI50: 4.98
--
Smiles str: Cc1nc(NCc2ccccc2)nc(C(F)F)n1
pI50: 5.63

====

- Experimental target: Photosystem II protein D1 (Spinacia oleracea, UniProt P69560)
- Measurement notes: Inhibition of photosynthetic electron transport protein complex in Spinacia oleracea (spinach) leaf thylakoid

Molecule: CCOC(=O)c1nc(C)nc(NC(C)C)n1
Experimental target: Photosystem II protein D1 (Spinacia oleracea, UniProt P69560)
pI50: 6.11
//
Molecule: CCOC(=O)c1nc(C)nc(NCc2ccccc2)n1
Experimental target: Photosystem II protein D1 (Spinacia oleracea, UniProt P69560)
pI50: 4.88
//
Molecule: CCOC(=O)c1nc(C)nc(NC(C)CC)n1 (centres undefined)
Experimental target: Photosystem II protein D1 (Spinacia oleracea, UniProt P69560)
pI50: 4.37
//
Molecule: COC(=O)c1nc(C)nc(NCc2ccccc2)n1
Experimental target: Photosystem II protein D1 (Spinacia oleracea, UniProt P69560)
pI50: 4
